test: D9 solubility in the liquors at isolation temperature; assay type: physicochemical; conditions: liquors of the equilibrated crystallisation suspension, 25 °C, organic solvent or mixture, thermodynamic from solid, EtOAc/MeOH (1:3); isolation 25 °C; SP 21; 10.0 mL/g; read-out: D9 Solubility at Isolation T
REPORTED_ENDPOINT: solubility (µg/mL)

• CCCCCc1cc(OC(=O)c2ccc3ccccc3c2)c2c(c1)OC(C)(C)[C@@H]1CCC(C)=C[C@@H]21 [Form H] = 8900

====

assay: D9 solubility in the liquors at isolation temperature; format: physicochemical; details: EtOAc/EtOH (1:9), 25 °C, organic solvent or mixture, thermodynamic from solid, batch 5, EtOAc/EtOH (1:9), seed H, heat T 55, isolation T 25, SP 21, 10.0 mL/g
REPORTED_ENDPOINT: solubility (mg/mL)

• CCCCCc1cc(OC(=O)c2ccc3ccccc3c2)c2c(c1)OC(C)(C)[C@@H]1CCC(C)=C[C@@H]21 [Form B] = 12

====

assay: D9 solubility in the liquors at isolation temperature; format: physicochemical; conditions: MEK/MeOH (3:7), 5 °C, organic solvent or mixture, thermodynamic from solid, batch 5, MEK/MeOH (3:7), seed G, heat T 25, isolation T 5, SP 11, 30.0 mL/g
REPORTED_ENDPOINT: solubility (mg/mL)

* CCCCCc1cc(OC(=O)c2ccc3ccccc3c2)c2c(c1)OC(C)(C)[C@@H]1CCC(C)=C[C@@H]21 [Form B] | 15.8

====

experiment: Visual solubility of Form B; type: physicochemical; conditions: organic solvent or mixture, thermodynamic from solid; solvent BuOH/MeOH (1:3); RT; read-out: Visual Solubility at RT
REPORTED_ENDPOINT: solubility

• CCCCCc1cc(OC(=O)c2ccc3ccccc3c2)c2c(c1)OC(C)(C)[C@@H]1CCC(C)=C[C@@H]21 [Form B] = < 10000 µg/mL

====

assay: Gravimetric solubility; assay type: physicochemical; conditions: 20 °C, organic solvent or mixture, thermodynamic from solid; solvent BuOH/MeOH (1:3); RT; read-out: Gravimetric Solubility at RT
REPORTED_ENDPOINT: solubility

• CCCCCc1cc(OC(=O)c2ccc3ccccc3c2)c2c(c1)OC(C)(C)[C@@H]1CCC(C)=C[C@@H]21 [Form B] = ~6000 µg/mL

====

assay: D9 solubility in the liquors at isolation temperature; format: physicochemical; conditions: n-BuOH/MeOH (1:3), 25 °C, organic solvent or mixture, thermodynamic from solid, batch 5, n-BuOH/MeOH (1:3), seed G, heat T 60, isolation T 25, SP 9, 10.0 mL/g
REPORTED_ENDPOINT: solubility (µg/mL)

• CCCCCc1cc(OC(=O)c2ccc3ccccc3c2)c2c(c1)OC(C)(C)[C@@H]1CCC(C)=C[C@@H]21 [Form B] = 6000

====

Assay: D9 solubility in the liquors at isolation temperature
Assay type: physicochemical
Conditions: crystallisation liquors over suspended solid, 25 °C, organic solvent or mixture, thermodynamic from solid, batch 5, Toluene/MeOH (3:7), seed G, heat T 40, isolation T 25, SP 3, 5.5 mL/g
Method: At the end of each experiment, suspensions were equilibrated at the isolation temperature (25 or 5° C.) for at least 18 hours and the solids and liquors separated by centrifugation at the isolation temperature. The Exo/D9/D8 ratio (Exo-D9-THC-naphthoylester impurity/D9-THC-naphthoylester/D8-THC-naphthoylester) was determined in both the isolated solids and the liquors, from which the % Exo-depletion in the isolated solids was calculated. […]
REPORTED_ENDPOINT: solubility (mg/mL)

• CCCCCc1cc(OC(=O)c2ccc3ccccc3c2)c2c(c1)OC(C)(C)[C@@H]1CCC(C)=C[C@@H]21 [Form B] = 53.5

====

assay: D9 solubility in the liquors at isolation temperature; assay type: physicochemical; settings: crystallisation liquors over suspended solid, 25 °C, organic solvent or mixture, thermodynamic from solid, batch 5; EtOAc/MeOH (1:3); seed G/H; heat T 55; isolation T 25; 10.0 mL/g; SP 15; Exp 55
REPORTED_ENDPOINT: solubility (µg/mL)

- CCCCCc1cc(OC(=O)c2ccc3ccccc3c2)c2c(c1)OC(C)(C)[C@@H]1CCC(C)=C[C@@H]21 [Form G]: 9700

====

test: D9 solubility in the liquors at isolation temperature; type: physicochemical; settings: crystallisation liquors over suspended solid, 25 °C, organic solvent or mixture, thermodynamic from solid, batch 5, MeCN/MeOH (9:1), seed D/G, heat T 50, isolation T 25, SP 5, 30.0 mL/g
REPORTED_ENDPOINT: solubility

- CCCCCc1cc(OC(=O)c2ccc3ccccc3c2)c2c(c1)OC(C)(C)[C@@H]1CCC(C)=C[C@@H]21 [Form C]: 8700 µg/mL

====

assay: Visual solubility of Form B; assay type: physicochemical; conditions: organic solvent or mixture, thermodynamic from solid; solvent MIBK; RT; read-out: Visual Solubility at RT
REPORTED_ENDPOINT: solubility

• CCCCCc1cc(OC(=O)c2ccc3ccccc3c2)c2c(c1)OC(C)(C)[C@@H]1CCC(C)=C[C@@H]21 [Form B] = 105 to 420 mg/mL

====

Test: D9 solubility in the liquors at isolation temperature
Format: physicochemical
Conditions: crystallisation liquors over suspended solid, 5 °C, organic solvent or mixture, thermodynamic from solid, batch 5, MeCN/MIBK (8:2), seed D, heat T 50, isolation T 5, SP 6, 20.0 mL/g
Protocol: At the end of each experiment, suspensions were equilibrated at the isolation temperature (25 or 5° C.) for at least 18 hours and the solids and liquors separated by centrifugation at the isolation temperature. The Exo/D9/D8 ratio (Exo-D9-THC-naphthoylester impurity/D9-THC-naphthoylester/D8-THC-naphthoylester) was determined in both the isolated solids and the liquors, from which the % Exo-depletion in the isolated solids was calculated. […]
REPORTED_ENDPOINT: solubility (mg/mL)

• CCCCCc1cc(OC(=O)c2ccc3ccccc3c2)c2c(c1)OC(C)(C)[C@@H]1CCC(C)=C[C@@H]21 [Form C] = 21.6

====

test: D9 solubility in the liquors at isolation temperature; assay type: physicochemical; conditions: crystallisation liquors over suspended solid, 25 °C, organic solvent or mixture, thermodynamic from solid, batch 5; Toluene/MeOH (3:7); seed G; heat T 25; isolation T 25; 8.0 mL/g; SP 7
REPORTED_ENDPOINT: solubility (mg/mL)

- CCCCCc1cc(OC(=O)c2ccc3ccccc3c2)c2c(c1)OC(C)(C)[C@@H]1CCC(C)=C[C@@H]21 [Form H]: 80.2

====

assay: D9 solubility in the liquors at isolation temperature; type: physicochemical; details: crystallisation liquors over suspended solid, 25 °C, organic solvent or mixture, thermodynamic from solid, batch 5; EtOAC/EtOH (2:8); seed H; heat T 50; isolation T 25; 8.0 mL/g; SP 17; Exp 47
REPORTED_ENDPOINT: solubility (mg/mL)

- CCCCCc1cc(OC(=O)c2ccc3ccccc3c2)c2c(c1)OC(C)(C)[C@@H]1CCC(C)=C[C@@H]21 [Form H]: 36.2

====

experiment: Gravimetric solubility; type: physicochemical; settings: 20 °C, organic solvent or mixture, thermodynamic from solid; solvent IPA:water (9:1); RT; read-out: Gravimetric Solubility at RT
REPORTED_ENDPOINT: solubility

* CCCCCc1cc(OC(=O)c2ccc3ccccc3c2)c2c(c1)OC(C)(C)[C@@H]1CCC(C)=C[C@@H]21 [Form B] | ~3000 µg/mL

====

experiment: D9 solubility in the liquors at isolation temperature; assay type: physicochemical; conditions: MEK/IPA (1:9), 25 °C, organic solvent or mixture, thermodynamic from solid, batch 5, MEK/IPA (1:9), seed G/H, heat T 55, isolation T 25, SP 15, 5.0 mL/g
REPORTED_ENDPOINT: solubility (mg/mL)

* CCCCCc1cc(OC(=O)c2ccc3ccccc3c2)c2c(c1)OC(C)(C)[C@@H]1CCC(C)=C[C@@H]21 [Form B] | 17.2

====

test: Visual solubility of Form B; format: physicochemical; conditions: organic solvent or mixture, thermodynamic from solid; solvent THF/MeOH (1:1); RT; read-out: Visual Solubility at RT
REPORTED_ENDPOINT: solubility

- CCCCCc1cc(OC(=O)c2ccc3ccccc3c2)c2c(c1)OC(C)(C)[C@@H]1CCC(C)=C[C@@H]21 [Form B]: 98 to 392 mg/mL

====

assay: D9 solubility in the liquors at isolation temperature; format: physicochemical; conditions: liquors of the equilibrated crystallisation suspension, 25 °C, organic solvent or mixture, thermodynamic from solid, Toluene/MeOH (3:7); isolation 25 °C; SP 7; 5.5 mL/g; read-out: D9 Solubility at Isolation T
REPORTED_ENDPOINT: solubility (mg/mL)

- CCCCCc1cc(OC(=O)c2ccc3ccccc3c2)c2c(c1)OC(C)(C)[C@@H]1CCC(C)=C[C@@H]21 [Form H]: 69.9

====

assay: D9 solubility in the liquors at isolation temperature; format: physicochemical; details: liquors of the equilibrated crystallisation suspension, 25 °C, organic solvent or mixture, thermodynamic from solid, batch 5; Cyclohexanone/MeOH (1:3); seed G; heat T 25; isolation T 25; 30.0 mL/g; SP 7
REPORTED_ENDPOINT: solubility (mg/mL)

* CCCCCc1cc(OC(=O)c2ccc3ccccc3c2)c2c(c1)OC(C)(C)[C@@H]1CCC(C)=C[C@@H]21 [Form G] | 29.3
